tested on: UO-31 renal; experiment: NCI-60 one-dose screen, 48 h (100 = growth as untreated, 0 = no growth, -100 = all killed); details: 10 µM unless noted
This is part of a sample that, as a whole, favours compounds with a hit. Of some 83,000 tested, about 20% had one in any assay. The source made the active and inactive calls. How the source made its calls: active means growth percent below 10; inactive means the rest.
Below is a list of entries, each paired with its recorded growth value.
Parameter Measured: growth

| Molecule | Reported |
| --- | --- |
| COc1ccc(C2CC(c3cccs3)=NN2c2ccc(S(=O)(=O)NC(=O)Nc3ccc(C)cc3)cc2)cc1 (stereo not given) | 85.7% (inactive) |
| O=C1CCCCN1CCCCC#Cc1ccccc1C#Cc1ccccn1 | 42.2% (inactive) |
| C=C1C(=O)O[C@H]2[C@H]1CC/C(Cn1cc(-c3ccsc3)nn1)=C\CC[C@@]1(C)O[C@@H]21 | -91.5% (active) |
| CCOC(=O)C1=C(C)NC(=O)NC1c1ccc(OCC(=O)N/N=C/c2ccc(Cl)cc2)cc1 (stereo not given) | 93.7% (inactive) |
| CCCCCCOc1ccc(C2(Cl)c3ccccc3N(C)c3ccccc32)cc1 | 67.8% (inactive) |
| COc1ccc2c(c1)NC(=O)CN2c1nc(C)nc2ccccc12 | 26.8% (inactive) |
| Nc1c(C(=O)Nc2cccc(Cl)c2Cl)sc2nc3c(cc12)C(=O)CCC3 | 78.8% (inactive) |
| O=c1[nH]c(CN2CCN(c3ccccc3F)CC2)nc2sc3c(c12)CCC3 | 95.2% (inactive) |
| Cc1cc(Nc2nc(-c3ccncc3)nc3ccccc23)n[nH]1 | 33.4% (inactive) |
| COc1cc(NCCN=C(N)NC(N)=NC(C)C)c2ncccc2c1 | 81.7% (inactive) |

* * *

test system: SF-295 CNS; experiment: NCI-60 one-dose screen, 48 h (100 = growth as untreated, 0 = no growth, -100 = all killed); settings: 10 µM unless noted
The panel holds about 83,000 compounds, 20% with a hit somewhere; the sample as a whole holds those more often.
Below is a list of entries, each paired with its recorded growth value.
Parameter Measured: growth (%)

| Molecule | U | Reported |
| --- | --- | --- |
| Nc1nc(-c2ccccc2)cs1 | % | 104 |
| CC(Br)C(Br)c1cc2c(cc1Br)OCO2 (stereo not given) | % | 98.5 |
| O=S(=O)(NCCNc1cc(-c2cn(-c3ccccc3)nc2-c2ccccc2)ccn1)c1cccc2ccccc12 | % | 35.9 |
| COC1=CC(c2ccc[nH]2)=N/C1=C\c1[nH]c(C)c(CCCn2cc(CCCCCCCCC[C@@H]3Cc4cc(O)ccc4C4CC[C@]5(C)[C@@H](O)CC[C@H]5C43)nn2)c1C (stereo not given in full) | % | 65.2 |
| O=C1NC(Cc2c[nH]c3ccccc23)C(=O)N1Cc1ccc(Cl)cc1 (stereo not given) | % | 82.3 |
| CCCCC(N)(C(=O)O)C1CCCC1 (stereo not given) | % | 98.8 |
| COc1cccc(-c2nc3sccn3c2-c2ccnc(NCCCNS(=O)(=O)c3ccccc3)n2)c1 | % | 55 |
| COc1ccc(C2SCC(=O)N2NC(=O)c2ccc(NC(=O)c3ccccn3)cc2)cc1OC (stereo not given) | % | 101 |
| N#Cc1c(NC(=O)c2ccc([N+](=O)[O-])o2)[n+]([O-])c2cc(F)c(F)cc2[n+]1[O-] | % | 97 |
| CCC(C)NCC(=O)O (stereo not given) | % | 92.4 |
